assayDetails: Pharmacokinetic assessment: plasma concentrations by liquid chromatography tandem mass spectrometry after ticagrelor loading dose
Type: in vivo, human (patients with myocardial infarction)
experimentalContext: both sexes, human, plasma, po, 180 mg, STEMI patients; oral 180 mg ticagrelor LD; 0 to 12 hours; median [interquartile range]
propertyName: Tmax (h)
One number for each entry, in h.

Problem: Dear colleague, please send me the reported Tmax for CCCSc1nc(N[C@@H]2C[C@H]2c2ccc(F)c(F)c2)c2nnn([C@@H]3C[C@H](OCCO)[C@@H](O)[C@H]3O)c2n1 [ticagrelor] when you can.
Solution: 4

====

assayDetails: Pharmacokinetic assessment: plasma concentrations by liquid chromatography tandem mass spectrometry after ticagrelor loading dose
Assay type: in vivo, human (patients with myocardial infarction)
experimentalContext: both sexes, human, plasma, oral, 180 mg, NSTEMI opioid-treated (morphine) patients (second value of the pair); post hoc analysis; median [interquartile range]
propertyName: Tmax (h)
Numbers only, in h.

Problem: Dear colleague, please send me the reported Tmax for CCCSc1nc(N[C@@H]2C[C@H]2c2ccc(F)c(F)c2)c2nnn([C@@H]3C[C@H](OCCO)[C@@H](O)[C@H]3O)c2n1 [ticagrelor] when you can.
Solution: 4
